Reported log10(IC50) by item:
Test: Inhibition of chymotrypsin-like activity of 20S proteasome in human MOLT4 cells after 1 hr by […]
Assay type: cell-based
Settings: MOLT-4, 1 h
readoutName: log10(IC50) (log10 of the value in nM)

- CC(C)C[C@H](NC(=O)c1cccs1)C(=O)N[C@@H](Cc1ccccc1)C(=O)N[C@@H](CC(C)C)C(=O)[C@@]1(C)CO1: 1.60
- COC[C@H](NC(=O)c1cc(C)on1)C(=O)N[C@@H](CC1CCCCC1)C(=O)N[C@@H](CC(C)C)C(=O)[C@@]1(C)CO1: 1.89
- Cc1cc(NC(=O)N[C@@H](CC(C)C)C(=O)N[C@@H](Cc2ccccc2)C(=O)N[C@@H](CC(C)C)C(=O)[C@@]2(C)CO2)no1: 1.67
- CC(C)C[C@H](NC(=O)c1cc(CN2CCN(C)CC2)on1)C(=O)N[C@@H](Cc1ccccc1)C(=O)N[C@@H](CC(C)C)C(=O)[C@@]1(C)CO1: 2.09
- CC(C)C[C@H](NC(=O)c1ccno1)C(=O)N[C@@H](Cc1ccccc1)C(=O)N[C@@H](CC(C)C)C(=O)[C@@]1(C)CO1: 1.81
- COC[C@H](NC(=O)c1cc(CN2CCOCC2)on1)C(=O)N[C@@H](Cc1ccccc1)C(=O)N[C@@H](CC(C)C)C(=O)[C@@]1(C)CO1: 1.41
- CC(C)C[C@H](NC(=O)CN1CCOCC1)C(=O)N[C@@H](Cc1ccccc1)C(=O)N[C@@H](CC(C)C)C(=O)[C@@]1(C)CO1: 1.65
- COC[C@H](NC(=O)c1cc(C)on1)C(=O)N[C@@H](CC#N)C(=O)N[C@@H](CC(C)C)C(=O)[C@@]1(C)CO1: 1.96
- Cc1cc(C(=O)N[C@@H](Cc2cscn2)C(=O)N[C@@H](Cc2ccccc2)C(=O)N[C@@H](CC(C)C)C(=O)[C@@]2(C)CO2)no1: 1.75
- CC(C)C[C@H](NC(=O)c1cc(CN2CCOCC2)on1)C(=O)N[C@@H](Cc1ccccc1)C(=O)N[C@@H](CC(C)C)C(=O)[C@@]1(C)CO1: 1.04
- CC(C)C[C@H](NC(=O)c1cnco1)C(=O)N[C@@H](Cc1ccccc1)C(=O)N[C@@H](CC(C)C)C(=O)[C@@]1(C)CO1: 1.92
- CCOc1cc(C(=O)N[C@@H](COC)C(=O)N[C@@H](COC)C(=O)N[C@@H](CC(C)C)C(=O)[C@@]2(C)CO2)no1: 1.54
- COC[C@H](NC(=O)c1cc(C)on1)C(=O)N[C@@H](Cc1ccccc1)C(=O)N[C@@H](CC(C)C)C(=O)[C@@]1(C)CO1: 1.56
- CC(C)C[C@H](NC(=O)c1cc(Cn2ccnc2)on1)C(=O)N[C@@H](Cc1ccccc1)C(=O)N[C@@H](CC(C)C)C(=O)[C@@]1(C)CO1: 1.77
- CC(C)C[C@H](NC(=O)c1cc(C(C)C)on1)C(=O)N[C@@H](Cc1ccccc1)C(=O)N[C@@H](CC(C)C)C(=O)[C@@]1(C)CO1: 1.23
- CC(C)C[C@H](NC(=O)c1cc[nH]n1)C(=O)N[C@@H](Cc1ccccc1)C(=O)N[C@@H](CC(C)C)C(=O)[C@@]1(C)CO1: 2.27
- Cc1cc(C(=O)N[C@@H](Cc2cccnc2)C(=O)N[C@@H](Cc2ccccc2)C(=O)N[C@@H](CC(C)C)C(=O)[C@@]2(C)CO2)no1: 1.43
- COC[C@H](NC(=O)c1cc(OC)no1)C(=O)N[C@@H](COC)C(=O)N[C@@H](Cc1ccccc1)C(=O)[C@@]1(C)CO1: 1.00
- CC(C)C[C@H](NC(=O)c1nccn1C)C(=O)N[C@@H](Cc1ccccc1)C(=O)N[C@@H](CC(C)C)C(=O)[C@@]1(C)CO1: 2.21
- CC(C)C[C@H](NC(=O)c1ccoc1)C(=O)N[C@@H](Cc1ccccc1)C(=O)N[C@@H](CC(C)C)C(=O)[C@@]1(C)CO1: 2.06
- CC(C)C[C@H](NC(=O)[C@H](CCc1ccccc1)NC(=O)CN1CCOCC1)C(=O)N[C@@H](Cc1ccccc1)C(=O)N[C@@H](CC(C)C)C(=O)[C@@]1(C)CO1: 0.71
- COC[C@H](NC(=O)c1cc(C)on1)C(=O)N[C@@H](C)C(=O)N[C@@H](CC(C)C)C(=O)[C@@]1(C)CO1: 1.76
- COC[C@H](NC(=O)c1cc(C)on1)C(=O)N[C@@H](Cc1ccsc1)C(=O)N[C@@H](CC(C)C)C(=O)[C@@]1(C)CO1: 1.66
- CC(C)C[C@H](NC(=O)[C@H](Cc1ccccc1)NC(=O)[C@H](Cc1cscn1)NC(=O)c1cc(CN2CCOCC2)on1)C(=O)[C@@]1(C)CO1: 1.77

The reported numbers originate from ChEMBL document CHEMBL1138457.
